Below is a list of entries, each paired with its recorded TRF signal value.
biological target: trypsin; assay: Fab TRF, 0.6 ug/mL Fab
Respond with the number and no other words.

// worked examples, TRF signal included
[
  {
    "binder": "KB_A11 (scFv, V domains shown) VH: EVQLVESGGGLVRPGGSLRLSCAASGFTFSSYAMSWVRQAPGKGLEWVSAISGSGGSTYYADSVKGRFTISRDNTKNSLYLQMTSLRADDTAFYYCVKDFGPGYGTGWFDYWGPGTLVTVSS VL: YLNWYQQKPGKAPKLLIYAAEICPRILMRCKQDSDCLAGCVCGPNGFCGPSSGIPARFSGSGYGTDFTLTINNIESEDAAYYFCLQHDNFPYTFGQGTKVEIKR",
    "quantitative-readout": 48900
  },
  {
    "binder": "KB_A02 (scFv, V domains shown) VH: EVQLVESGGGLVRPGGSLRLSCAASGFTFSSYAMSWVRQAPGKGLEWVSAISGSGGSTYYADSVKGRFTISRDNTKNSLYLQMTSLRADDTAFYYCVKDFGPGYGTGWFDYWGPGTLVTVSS VL: AVNWYQQLPGKAPKLLIYAAAKCPRILMRCKQDSDCLAGCVCGPNGFCGGASGVSDRFSGSIDSSSNSASLTISGLKPEDEGDYYCQSYDSSNRWVFGGGTKVTVLG",
    "quantitative-readout": 93800
  },
  {
    "binder": "KB_C08 (scFv, V domains shown) VH: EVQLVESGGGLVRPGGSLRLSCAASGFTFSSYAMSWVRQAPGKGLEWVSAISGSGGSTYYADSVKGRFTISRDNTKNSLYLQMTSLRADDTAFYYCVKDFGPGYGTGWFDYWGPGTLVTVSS VL: AVNWYQQLPGKAPKLLIYAAAVCPRILMRCKQDSDCLAGCVCGPNGFCGTRSGIPERFSGSKSGTSAFLAISGLRSEDEADYYCAAWDDSLSGVVFGGGTKLTVLG",
    "quantitative-readout": 51100
  }
]

In: Bench note: what TRF signal did KB_B02 (scFv, V domains shown) VH: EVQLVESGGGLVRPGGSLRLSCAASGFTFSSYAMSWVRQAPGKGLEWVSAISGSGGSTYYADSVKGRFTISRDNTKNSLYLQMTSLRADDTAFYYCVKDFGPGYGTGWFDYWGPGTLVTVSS VL: AVNWYQQLPGKAPKLLIYAAVGCPRILMRCKQDSDCLAGCVCGPNGFCGTGSGIPERFSGSKSGNTASLTISGLQAEDEGDYYCAAWDDSLSGPVFGGGTKLTVLG show?
Out: 2340

In: Bench note: what TRF signal did KB_A09 (scFv, V domains shown) VH: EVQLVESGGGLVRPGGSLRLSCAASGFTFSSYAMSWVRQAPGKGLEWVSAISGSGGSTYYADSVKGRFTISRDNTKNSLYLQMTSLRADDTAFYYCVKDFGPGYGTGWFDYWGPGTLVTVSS VL: AVNWYQQLPGKAPKLLIYAAERCPRILMRCKQDSDCLAGCVCGPNGFCGTPSGVPDRFSGSIDTFSNSASLTISGLKTEDEADYYCQSYDSSHHWVFGGGTKLTVLG show?
Out: 21000

In: Bench note: what TRF signal did KB_A10 (scFv, V domains shown) VH: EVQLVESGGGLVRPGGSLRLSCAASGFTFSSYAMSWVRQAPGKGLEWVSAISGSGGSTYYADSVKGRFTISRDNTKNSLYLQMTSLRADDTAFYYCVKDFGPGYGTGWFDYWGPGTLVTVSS VL: AVNWYQQLPGKAPKLLIYAAGGCPRILMRCKQDSDCLAGCVCGPNGFCGSNSGVPDRFSGSKSGNTASLTISGLQSEDEADYYCAAWDDSLSGVVFGGGTQLTVLG show?
Out: 14600

In: Bench note: what TRF signal did KB_C10 (scFv, V domains shown) VH: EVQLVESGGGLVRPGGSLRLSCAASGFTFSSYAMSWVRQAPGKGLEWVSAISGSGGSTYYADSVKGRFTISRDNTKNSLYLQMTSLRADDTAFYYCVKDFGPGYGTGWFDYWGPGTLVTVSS VL: AVNWYQQLPGKAPKLLIYAAGPCPRILMRCKQDSDCLAGCVCGPNGFCGADSGVSDRFSGSKSGTSASLAITGLQAEDEGDYYCAAWDDSLNGLVFGGGTKVTVLG show?
Out: 41700
